Target: BIR3 domain of human XIAP (residues 252-350) (Homo sapiens)
Construct: BIR3 domain of human XIAP (residues 252-350); His-tag (cleaved yes); made in house; host or cells: Escherichia coli
Sequence (P98170 252-350): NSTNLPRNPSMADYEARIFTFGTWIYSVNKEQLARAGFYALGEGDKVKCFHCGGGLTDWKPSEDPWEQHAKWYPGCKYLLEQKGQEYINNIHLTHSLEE
Experiment: XIAP in vitro competitive displacement binding assay (fluorescence polarization)
Conditions: 1 h, percent inhibition (PI) at 0.04 μM; read-out: Xiap IC50 or PI μM
Where a name gives a salt, the structure may show the parent alone.
We use 70% as the dividing line for inhibition at 0.04 µM: on or above the line is true, below is false.

compound: CCC1CN(C[C@H]2CN[C@H](C)CN2CC(=O)N2CC(C)(C)c3cnc(Cc4ccc(F)cc4F)cc32)C(=O)CO1 (single isomer, unassigned) [Example 80, dihydrochloride]
group: false

compound: CC1=C(C)C(=O)N(C[C@H]2CN[C@H](C)CN2CC(=O)N2CC(C)(C)c3cnc(Cc4ccc(F)cc4F)cc32)C1 [Example 33, dihydrochloride]
group: true

compound: C[C@@H]1CN(CC(=O)N2CC(C)(C)c3ncc(Cc4ccc(F)cc4)cc32)[C@@H](CN2Cc3ccncc3C2=O)CN1 [Example 19, dihydrochloride]
group: false

compound: CCCC(F)(F)c1cc2c(cn1)C(C)(C)CN2C(=O)CN1C[C@@H](C)NC[C@@H]1CN1C[C@H](C)OCC1=O [Example 26, dihydrochloride]
group: false

compound: CCCC(F)(F)c1cc2c(cn1)C(C)(C)CN2C(=O)CN1C[C@@H](C)NC[C@@H]1CN1Cc2ccccc2C1=O [Example 27, dihydrochloride]
group: true

compound: CC1=C(C)C(=O)N(C[C@H]2CN[C@H](C)CN2CC(=O)N2CC(C)(C)c3nnc(Cc4ccc(F)cc4)cc32)C1
group: false

compound: CCCC(F)(F)c1cc2c(cn1)C(C)(C)CN2C(=O)CN1C[C@@H](C)NC[C@@H]1CN1CC(C)(C)CC1=O [Example 38, dihydrochloride]
group: true

compound: C[C@@H]1CN(CC(=O)N2CC(C)(C)c3ncc(Cc4ccc(F)cc4)cc32)[C@@H](CN2CCCCC2=O)CN1 [Example 21, dihydrochloride]
group: false

compound: C[C@@H]1CN(CC(=O)N2CC(C)(C)c3ncc(Cc4ccc(F)cc4)cc32)[C@@H](CN2CC3(COC3)CC2=O)CN1
group: false

compound: C[C@@H]1CC(=O)N(C[C@H]2CN[C@H](C)CN2CC(=O)N2CC(C)(C)c3cnc(Cc4ccc(F)cc4F)cc32)C1 [Example 71, dihydrochloride]
group: false

compound: C[C@@H]1CN(CC(=O)N2CC(C)(C)c3cnc(Cc4ccc(F)cc4)cc32)[C@@H](CN2C[C@H](C)N(C)CC2=O)CN1 [Example 107, dihydrochloride]
group: false

compound: CCCC(F)(F)c1cc2c(cn1)C(C)(C)CN2C(=O)CN1C[C@@H](C)NC[C@@H]1CN1CC(C)=C(C)C1=O [Example 28, dihydrochloride]
group: false

compound: C[C@@H]1CN(CC(=O)N2CC(C)(C)c3nnc(Cc4ccc(F)cc4F)cc32)[C@@H](CN2Cc3cc(O)ccc3C2=O)CN1 [Example 108, dihydrochloride]
group: true

compound: C[C@@H]1CN(CC(=O)N2CC(C)(C)c3cnc(Cc4ccc(F)cc4F)cc32)[C@@H](CN2C[C@@H](C)N(C)CC2=O)CN1 [Example 85, dihydrochloride]
group: false

compound: C[C@@H]1CN(CC(=O)N2CC(C)(C)c3nnc(Cc4ccc(F)cc4F)cc32)[C@@H](CN2Cc3ccc(O)cc3C2=O)CN1 [Example 115, dihydrochloride]
group: true

compound: C[C@@H]1CN(CC(=O)N2CC(C)(C)c3ncc(Cc4ccc(F)cc4)cc32)[C@@H](CN2CC(C)(C)CC2=O)CN1 [Example 1, dihydrochloride]
group: false

compound: C[C@@H]1CN(CC(=O)N2CC(C)(C)c3ncc(Cc4ccc(F)cc4F)cc32)[C@@H](CN2Cc3cc(C#N)ccc3C2=O)CN1 [Example 106, dihydrochloride]
group: true

compound: C[C@@H]1CN(CC(=O)N2CC(C)(C)c3nnc(Cc4ccc(F)cc4F)cc32)[C@@H](CN2Cc3c(O)cccc3C2=O)CN1 [Example 117, dihydrochloride]
group: true

Data provenance is patent US9617283B2.
